Each recorded value in this set is attributed to PubChem BioAssay AID1159580.

- EXPERIMENT_SUMMARY: chemical genetic growth profiling, strain panel (AID 1159580);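 note: tested at 20 µM; growth read once vehicle control cultures reached saturation at 30 °C; lower values mean less growth of the strain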
- CONDITIONS_USED: S. cerevisiae deletion strains, growth OD, locus YCR088W, strain abp1
The whole screen tested about 5,500 compounds, of which about 2,000 (36%) were called active. Roughly 18% stayed inconclusive and do not appear here. Cut-off read from the data, not from the text of the source: active = normalized growth mostly below about 0.91 (no sharp cut-off); inconclusive = no clear call, values can overlap the other calls; inactive = mostly above about 0.92. Some of the results follow.
Lab note: assign the record to one of active, inactive

Reference set (5 entries):
COc1ccc(Cl)cc1C(=O)NCCc1ccc(S(=O)(=O)NC(=O)NC2CCCCC2)cc1	inactive
O=C(O[C@@H]1Cc2c(O)cc(O)cc2O[C@@H]1c1cc(O)c(=O)c2c(O)c(O)cc([C@H]3Oc4cc(O)cc(O)c4C[C@H]3OC(=O)c3cc(O)c(O)c(O)c3)c2c1)c1cc(O)c(O)c(O)c1	active
Cc1cc(OC(=O)c2c(C)cc(O)cc2O)cc(O)c1C(=O)O	inactive
Cc1ccccc1OCC(O)CO (stereo not drawn)	inactive
C[C@H]1O[C@H](OC2[C@@H](O)[C@@H](O)C(O)[C@H](O)[C@H]2O)[C@@H](N)C[C@@H]1N=C(N)C(=O)O (stereo partly drawn)	inactive

How was C=C1CCC2(OC1)OC1CC3C4CC=C5CC(O)CC(O)C5(C)C4CCC3(C)C1C2C (stereo not drawn) classified in this test? inactive

// outcome(item) with item = CCOC(=O)c1c(C)cc(OC)cc1O inactive

Outcome? CCC1OC(=O)[C@H](C)C(=O)[C@H](C)[C@@H](OC2O[C@H](C)C[C@H](N(C)C)[C@H]2O)[C@](C)(OC)C2(CCCn3cnc(-c4cccnc4)c3)C[C@@H](C)C(=O)[C@H](C)[C@H]3N(C2)C(=O)O[C@]13C (stereo partly drawn) inactive

* * *

- EXPERIMENT_SUMMARY: chemical genetic growth profiling, strain panel (AID 1159580);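 note: tested at 20 µM; growth read once vehicle control cultures reached saturation at 30 °C; lower values mean less growth of the strain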
- CONDITIONS_USED: S. cerevisiae deletion strains, growth OD, locus YLR342W, strain FKS1 (second series)
Screen size: about 5,500 compounds; about 2,000 (36%) were called active. About 18% were inconclusive and are not listed. Rule as the data show it: active = normalized growth mostly below about 0.91 (no sharp cut-off); inconclusive = no clear call, values can overlap the other calls; inactive = mostly above about 0.92. The list shows a part of the results.
Parameter call: string, one of t for active, f for inactive

# example entries with known answers
Oc1cc2c(cc1O)C1c3ccc(O)c(O)c3OCC1(O)C2 (centres undefined)	t
CC(=O)OCC1=C(C(=O)O)N2C(=O)[C@@H](NC(=O)Cc3cccs3)[C@H]2SC1	f
COc1cc(O)c2c(=O)c(O)c(-c3ccc(O)c(O)c3)oc2c1	f
Oc1ccc2c(c1)OCC1(O)Cc3cc(O)c(O)cc3C21 (centres undefined)	f
COC(=O)[C@]1(C)CCC[C@]2(C)c3ccc(C(C)C)cc3C(=O)CC12 (some centres undefined)	f
C=C(C)[C@H]1COc2cc3oc(=O)ccc3cc2O1	t
COc1cc(OC)c2c(=O)c(OC)c(-c3ccc(OC)c(OC)c3)oc2c1	f
CC(C)(O)[C@@H]1Cc2cc3ccc(=O)oc3cc2O1	f

Now look at this entry.
Just curious, what result did COc1cc(OC)c2c(=O)c(O)c(-c3ccc(OC)c(OC)c3)oc2c1 get here? t

* * *

- EXPERIMENT_SUMMARY: chemical genetic growth profiling, strain panel (AID 1159580);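 note: tested at 20 µM; growth read once vehicle control cultures reached saturation at 30 °C; lower values mean less growth of the strain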
- CONDITIONS_USED: S. cerevisiae deletion strains, growth OD, locus YML120C, strain ndi1
The whole screen tested about 5,500 compounds, of which about 2,000 (36%) were called active. Another 18% or so got no clear call; they are omitted. Rule as the data show it: active = normalized growth mostly below about 0.91 (no sharp cut-off); inconclusive = no clear call, values can overlap the other calls; inactive = mostly above about 0.92. The list shows a part of the results.
Please state which outcome applies, choosing from active, inactive

COc1c2ccoc2cc2oc(=O)ccc12	active
COc1ccc(Cl)cc1C(=O)NCCc1ccc(S(=O)(=O)NC(=O)NC2CCCCC2)cc1	inactive
COc1ccc2ccc(=O)oc2c1	inactive
CNC(=O)Oc1cccc2c1OC(C)(C)O2	inactive

Now for a further compound.
Outcome? CC(=O)OCC1=C(C(=O)O)N2C(=O)[C@@H](NC(=O)Cc3cccs3)[C@H]2SC1 inactive
